Assay: UV/vis spectroscopic interaction studies of PZ-derived peptides with heme
Assay type: binding
Conditions: peptide 10 µM, 100 mM HEPES pH 7.0, 30 min; stoichiometry 1:1; read-out: K D (heme-binding affinity of peptide)
pKd: −log10 of the molar value. No end group written: not given here. Cys(S-Me) = S-methylated cysteine
In this section, each of the substances is paired with its reported pKd.
reported-endpoint: pKd

1. FWRRYKGGS [Peptide 1]; 5.98
2. IKITHVHVHMRYD [Peptide 4, PZ-derived peptide around H206/H208/H210, positions 202 - 214]; 6.10
3. C(Me)SLLHRNITVKTYFNRT ({Cys(S-Me)}-SLLHRNITVKTYFNRT) [Peptide 3, PZ-derived peptide around H183/Y191 with methylated cysteine, positions 179 - 195]; 5.95
